Below is a list of entries, each paired with its recorded pIC50 value.
Biological target: HIV-1 RT double mutant K103N/Y181C (Human immunodeficiency virus type 1 group M subtype B, UniProt P03366, K702N/Y780C)
Construct: HIV-1 wild type reverse transcriptase as well as the clinically significant double mutant K103N/Y181C
Experiment: biochemical
Description: Utilizing the Reverse Transcriptase (RT) Assay described below, compounds were tested for their ability to inhibit the RNA-dependent DNA polymerase activity of HIV-1 RT. Certain specific compounds described in the Examples and in Tables 1-4, were so tested. The results of this testing appear in Table 5 as ranges of IC50 (nM) and EC50 (nM). Reverse Transcriptase (RT) Assays
pIC50: −log10 of the molar value.

Worked examples, 3 compounds total:
CPD_SMILES	pIC50
CCN1c2ncc(CCOc3ccc(C(=O)Nc4cccn(CC(=O)O)c4=O)cc3C)cc2C(=O)N(C)c2cccnc21	7.00 to 7.30
CCN1c2ncc(CCOc3ccc(-c4cocn4)cc3C)cc2C(=O)N(C)c2cccnc21	> 7.30
CCN1c2ncc(CCOc3ccc(Nc4nc(C(=O)O)cs4)cc3C)cc2C(=O)N(C)c2cccnc21	7.00 to 7.30

Qu. Let me know recorded pIC50 for `CCN1c2ncc(CCOc3ccc(-n4ccnc4)cc3C)cc2C(=O)N(C)c2cccnc21` , thanks.
Ans. > 7.30

Qu. State its pIC50 for this compound: `CCN1c2ncc(CCOc3ccc(C(=O)NS(=O)(=O)c4ccccc4)cc3C)cc2C(=O)N(C)c2cccnc21`
Ans. < 7.00

Qu. Entry `CCN1c2ncc(CCOc3ccc(C(=O)Nc4ccc(CC(=O)O)cc4)cc3C)cc2C(=O)N(C)c2cccnc21` needs its pIC50 filled in; supply it.
Ans. > 7.30

Qu. Kindly indicate its recorded pIC50. Item: `CCN1c2ncc(CCOc3ccc(C(=O)c4ccc(C(=O)O)cc4)cc3C)cc2C(=O)N(C)c2cccnc21`
Ans. 7.00 to 7.30

Data provenance is patent US6806265B2.
